Recorded IC50 for compounds tested on Polyunsaturated fatty acid 5-lipoxygenase (Homo sapiens, UniProt P09917), drawn from a number of studies.
Numbers only, in nM.

# Compound, IC50, nM
rows = [
    ("CCOC(=O)NS(=O)(=O)c1ccc(-n2nc(C(F)(F)F)cc2-c2ccc(C)cc2)cc1", 920),
]

Batch of 5 compounds: report IC50 for each.
1. CC1Cc2c(OCc3cc4ccccc4cn3)ccc3c2c(c(CSc2ccccc2C(=O)O)n3Cc2ccc(Cl)cc2)S1 (centres undefined)
2. COc1cc(/C=C/C(=O)[N-]S(=O)(=O)c2ccc(-n3nc(C(F)(F)F)cc3-c3ccc(C)cc3)cc2)ccc1[O-].[Na+].[Na+]
3. CCC(OC)(c1cccc(COc2ccc3c(-c4ccccc4)c4c(cc3c2)C(=O)OC4)c1)c1nccs1 (centres undefined)
4. N=C1/C(=N\Nc2ccc(Cl)cc2)C(N)=NN1c1ccc(S(N)(=O)=O)cc1
5. c1ccc(-c2c(-c3ccco3)cn3c2CCC3)cc1

result:
175
310
160
2310
10000

----------
# merged literature set: IC50 with Polyunsaturated fatty acid 5-lipoxygenase (Homo sapiens)
Assayed Target: Polyunsaturated fatty acid 5-lipoxygenase (Homo sapiens)
Sequence (P09917 whole entry): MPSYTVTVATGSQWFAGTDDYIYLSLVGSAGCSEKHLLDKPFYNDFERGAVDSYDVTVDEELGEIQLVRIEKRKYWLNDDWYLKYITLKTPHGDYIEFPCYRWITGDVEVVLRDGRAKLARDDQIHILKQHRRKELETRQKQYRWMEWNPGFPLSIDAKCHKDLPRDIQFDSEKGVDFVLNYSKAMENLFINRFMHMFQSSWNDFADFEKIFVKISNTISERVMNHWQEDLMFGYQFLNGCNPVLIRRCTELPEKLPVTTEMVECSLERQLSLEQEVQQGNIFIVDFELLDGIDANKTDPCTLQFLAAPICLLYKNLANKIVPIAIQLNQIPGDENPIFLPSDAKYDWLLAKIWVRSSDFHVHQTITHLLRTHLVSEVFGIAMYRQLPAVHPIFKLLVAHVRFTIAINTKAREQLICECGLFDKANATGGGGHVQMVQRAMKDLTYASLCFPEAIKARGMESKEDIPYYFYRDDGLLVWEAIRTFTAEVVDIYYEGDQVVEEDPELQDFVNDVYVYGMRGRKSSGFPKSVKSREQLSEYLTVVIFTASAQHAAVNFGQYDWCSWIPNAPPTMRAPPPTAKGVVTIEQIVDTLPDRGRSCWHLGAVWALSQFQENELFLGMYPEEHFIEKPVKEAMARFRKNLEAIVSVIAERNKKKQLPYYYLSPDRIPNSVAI

# Substance Smiles, Measured Quantity, Measured Result
records = [
    ("Cc1ccccc1NC1=NS(=O)(=O)c2cc([N+](=O)[O-])ccc21", "IC50", "> 50 µM"),
    ("O=C(OCC#CCSc1nnc(-c2cccc3ccccc23)o1)c1ccsc1", "IC50", "> 15 µM"),
]

# IC50 (compound: Cc1ccc(S(=O)(=O)NCCc2c(-c3cc4ccccc4o3)[nH]c3ccccc23)cc1 ) is > 10 µM
